Tested on: SK-MEL-28 melanoma
Procedure details: NCI tumour cell line growth inhibition, 48 h
Property name: TGI

Solved cases (4 shown):
COc1ccc(C2=C(N)c3c(OC)cccc3C2=O)cc1 | > 100 µM
CC(=O)N(CCc1ccccc1)C(C#N)c1ccc(OCCCCCCCCCCOc2ccc(C(C#N)N(CCc3ccccc3)C(C)=O)cc2)cc1 (centres undefined) | > 100 µM
COc1cc(Nc2cnc3cc(F)c(F)cc3n2)cc(OC)c1 | > 100 µM
CCSC1=N/C(=C\c2ccco2)C(Cl)=N1 | > 100 µM

Now look at this one.
Respond only with TGI recorded for COC(=O)c1ccc(N=NN(C)COc2ccc([N+](=O)[O-])cc2)cc1
> 100 µM

* * *

System: CCRF-CEM leukemia
Procedure details: NCI tumour cell line growth inhibition, 48 h
Property name: TGI

Sample answers from the record:
Cc1cc(C)nc(NS(=O)(=O)c2ccc(Nc3c4ccc(Cl)cc4nc4c(C(=O)Nc5ccc(S(=O)(=O)N=C(N)N)cc5)cccc34)cc2)n1 | > 100 µM
CCCCCCCCCCCCC(O)C1CCC(C(O)CCCCCCC(O)CCCCCCCC2=CC(C)OC2=O)O1 (stereo unspecified) | 79.9 µM
CCn1c(O)c(C=N)c(=O)n(CC)c1=O | > 100 µM
NC(=N\N=C/c1cccc([N+](=O)[O-])c1)/C(N)=N\N=C/c1cccc([N+](=O)[O-])c1 | > 100 µM
COc1ccc(-c2c(CN3CCOCC3)sc3nc4ccccc4n23)cc1 | 56.2 µM

Here is the next item to consider.
Give the reported value of TGI for this record: COC(=O)C1[C@@H](C(=O)OC)C12C=Cc1ccccc1C=C2 (stereo partly specified)
> 100 µM

* * *

System: RPMI-8226 leukemia
Procedure details: NCI tumour cell line growth inhibition, 48 h
Where a SMILES comes first, the peptide text is derived from it. [ ]: non-standard residue; d: D form. The star is where a group is joined. ξ: configuration not given here. NMeN = CN[C@@H](CC(N)=O)C(=O)O; NMeV = CN[C@H](C(=O)O)C(C)C; ξNMeV = CNC(C(=O)O)C(C)C; Boc = CC(C)(C)OC(=O)*; ξNMeA = CNC(C)C(=O)O
Everything with TGI lower than 30 µM is no; everything else, including exactly 30 µM, is yes.

Cc1cc(N2CCN(c3ccnc4cc(Cl)ccc34)CC2)nc(NC2CCCCC2)n1 | no
CC(C)CNc1nc(-c2ccccc2)nc2ccccc12 | no
O=c1oc2ccccc2c(O)c1C(c1ccc(/C=C/c2ccccc2)cc1)c1c(O)c2ccccc2oc1=O | yes
CSC1=N/C(=C\c2ccco2)C(=O)N1CN1CCCCC1 | yes
O=c1[nH]c(=S)[nH]n1C(=S)n1[nH]c(=S)[nH]c1=O | yes

Is TGI at least 30 µM? Consider COC(=O)c1ccccc1/C=C1\Cc2cc(C)cc(C)c2C1=O
yes

Reported TGI reaches at least 30 µM for COc1ccc(/C=C2\CCCCCC2=O)cc1 ?
yes

# check: TGI of Cc1cccc(Cl)c1NC(=O)/C=C/c1ccccc1 is greater than or equal to 30 µM
yes

Reported TGI at or above 30 µM? CC1(C)CCC[C@@]2(C)C1CC[C@H]1CC(O)C3(C)CCC12C3 (stereo not given in full)
yes

Please indicate if the recorded TGI for CCCCC(=O)NC1(c2cc3ccccc3s2)CCCCC1 meets or exceeds 30 µM.
yes

hey, is TGI for this one >= 30 µM? CN(C)c1ccc(/C=c2/c3ccccc3n3c2cc(C24CC5CC(CC(C5)C2)C4)[n+]3C)cc1
yes

Is TGI at least 30 µM? Consider CC(=O)NC1C(O)C(O)C(CO)OC1n1ncc(=O)[nH]c1=O (stereo not given)
yes

In plain terms: is recorded TGI at least 30 µM for CC(C)(C)[Si](C)(C)OCC1CCC(n2cnc3c(N)ncnc32)O1 (stereo not given) ?
yes

Would you say CCN=c1cc2sc3cc(NCC)c(C)cc3nc-2cc1C shows TGI at minimum 30 µM?
no

Could you please find out whether N#Cc1sc2c(c1OC(=O)c1cccs1)c(=O)n(-c1ccccc1)c(=S)n2-c1ccccc1 has TGI that meets 30 µM or exceeds it?
yes

Entry O=C(C[n+]1ccccc1)N=N/C(C(=O)Nc1c(Cl)c(O)c2ccccc2c1O)=C1/C(=O)Oc2cc(O)ccc2C1=O : is its TGI no less than 30 µM?
yes

Entry C=CCN1C=CC(=O)[C@H](O[Si](C)(C)C(C)(C)C)[C@@H]1/C=C/c1ccccc1 : is its TGI no less than 30 µM?
yes

Say whether COC(=O)C(C)N(C)C(=O)[C@H](CC(N)=O)N(C)C(=O)[C@@H]1CCCN1C(=O)[C@H](C(C)C)N(C)C(=O)C(C(C)C)N(C)C(=O)[C@@H](NC(=O)OC(C)(C)C)C(C)C (stereo not given in full) (Boc-V[ξNMeV][NMeV]P[NMeN][ξNMeA]-OMe) shows TGI of 30 µM or more.
yes

* * *

System: HCT-15 colon
Procedure details: NCI tumour cell line growth inhibition, 48 h
# maps each entry to its TGI

CCOC(=O)C1C(c2ccc(OC)cc2)c2c([nH][nH]c2=O)CC1(O)OCC (centres undefined) | > 100 µM
O=[N+]([O-])c1ccc(Nc2nc3ccccc3s2)cc1 | > 100 µM
CCCCC(=O)NC1(c2cc3ccccc3s2)CCCCC1 | > 100 µM
C[C@H]1C[C@H](C)c2ccccc2N(C)C1=Nc1ccccc1 | > 100 µM
O=[N+]([O-])c1ccc(N=Nc2c(O)ccc3ccccc23)cc1 | > 100 µM
Cc1occc1C(=S)Nc1ccc(Cl)c(/C=N/OC(C)C)c1 | 42.8 µM
CC1(C)CC(n2cnc(-c3ccc(F)cc3)c2-c2ccnc(N)n2)CC(C)(C)N1 | > 25 µM
COc1cc([C@@H]2c3cc4c(cc3C[C@@H]3COC(=O)C32)OCO4)cc(OC)c1O (some centres undefined) | > 100 µM

Please list TGI recorded for the compound COc1cc(C2c3cc4c(cc3OC(Nc3ccccc3)C2C)OCO4)cc(OC)c1OC (centres undefined)
> 21.6 µM

Read the entry CCCCCCCCC/C=C1\CC(CO)(COC(=O)C2CCCCC2)OC1=O (centres undefined) and write its reported TGI.
41.7 µM

* * *

Test system: OVCAR-3 ovarian
Procedure details: NCI tumour cell line growth inhibition, 48 h
Property name: TGI

These recorded examples may help you get a feel for the data.
N#Cc1sc2c(c1OC(=O)c1cccs1)c(=O)n(-c1ccccc1)c(=S)n2-c1ccccc1 | > 100 µM
CC(=O)N(CCc1ccccc1)C(C#N)c1ccc(OCCCCCCCCCCOc2ccc(C(C#N)N(CCc3ccccc3)C(C)=O)cc2)cc1 (centres undefined) | > 100 µM
CN(C)C(=O)Nc1cc2c3c(c1)CCCN3CCC2 | > 10 µM

For the compound CCOC(=O)C1=C(Nc2ccc(Cl)cc2Cl)OC/C1=N\NS(=O)(=O)c1ccc(C)cc1 , give its measured TGI value.
> 100 µM

* * *

Tested on: NCI-H460 lung
Procedure details: NCI tumour cell line growth inhibition, 48 h
Property name: TGI

O=C1c2ccccc2C2=Nc3ccncc3CN12 | > 100 µM

For the compound CCCN1CN(C(C(=O)N[C@@H]2C(=O)N3C(C(=O)O)=C(C)CSC23)c2ccc(O)cc2)CSC1=S (stereo partly specified) , give its measured TGI value.
> 100 µM

* * *

Tested on: UO-31 renal
Procedure details: NCI tumour cell line growth inhibition, 48 h
Property name: TGI

Consider the reported TGI for these molecules:
CCn1c(O)c(C=N)c(=O)n(CC)c1=O | > 100 µM
Cc1cc2cc3c(C)cc(=O)oc3c(C)c2o1 | > 100 µM
COc1cc(C=Nc2ccc(C(C)C)cc2)cc(OC)c1OC | > 100 µM
C=CCN(CC=C)C(=O)c1cc(C)nc2c1c(=O)n(-c1ccccc1)c(=O)n2CC(O)CN1CCN(c2ncccn2)CC1 (stereo not drawn) | > 100 µM
O=C(O)CC12C3C4C5C3C1C5C42 (stereo not drawn) | > 100 µM
O=C(CCc1ccc(O)cc1)NCCc1cccc(OCc2ccccc2)c1 | 53.9 µM
O=C(O)C1Cc2c([nH]c3ccccc23)C=N1 (stereo not drawn) | > 100 µM

Complete the entry with TGI for [N-]=[NH+]CC(=O)OC(COCc1ccccc1)COCc1ccccc1
63 µM

* * *

Tested on: EKVX NSCLC
Procedure details: NCI tumour cell line growth inhibition, 48 h
Property name: GI50

Here are 3 molecules together with their reported answers.
O=C(N/N=C/c1ccccc1Cl)c1ccccc1Nc1ccnc(C(F)(F)F)c1 | 1.65 µM
O=C(Nc1ccc(F)cc1F)c1cc(Br)ccc1O | 2.23 µM
CC1=C2C[C@H]3[C@@H](CC=C4C[C@@H](O)CC[C@@]43C)[C@@H]2CC[C@]12O[C@@H]1C[C@H](C)CN[C@H]1[C@H]2C | 51.9 µM

# return recorded GI50 for input O=C([O][Hg][CH2]C1COCC([CH2][Hg][O]C(=O)c2ccccc2)O1)c1ccccc1 (centres undefined)
19.6 µM
